Origin of measurements: paper PMC10387993

Test: LDH cytotoxic activity assay, HeLa
Format: cell-based
Details: human, HeLa cells, 75 μg/mL
Field: cytotoxicity at 24 h, 75 μg/mL. Provide a value for each of the compounds that follow.
Answer as a quantity: numeral, then unit.

[Q] Which cytotoxicity at 24 h, 75 μg/mL is reported for this compound? `Cc1ccc(-c2cc(-c3ccncc3)nc(N[C@@H]3O[C@H](CO)[C@@H](O)[C@H](O)[C@H]3O)n2)cc1`
[A] 49.6%

[Q] Now the compound `CC(=O)OC[C@H]1O[C@@H](Nc2nc(-c3ccncc3)cc(-c3cccc(C)c3)n2)[C@H](OC(C)=O)[C@@H](OC(C)=O)[C@@H]1OC(C)=O`
[A] 37.1%

[Q] Now the compound `Cc1ccccc1-c1cc(-c2ccccn2)nc(N[C@@H]2O[C@H](CO)[C@@H](O)[C@H](O)[C@H]2O)n1`
[A] 65.3%

* * *

Below are MIC values measured for E. coli ATCC 25922.

[Q] What value of MIC on E. coli ATCC 25922 does Cc1ccc(-c2cc(-c3cccnc3)nc(N[C@@H]3O[C@H](CO)[C@@H](O)[C@H](O)[C@H]3O)n2)cc1 [Compound 8] have?
[A] 1000 µg/mL

[Q] Now the compound Cc1cccc(-c2cc(-c3cccnc3)nc(N[C@@H]3O[C@H](CO)[C@@H](O)[C@H](O)[C@H]3O)n2)c1 [Compound 5]
[A] > 1000 µg/mL

[Q] Now the compound CC(=O)OC[C@H]1O[C@@H](Nc2nc(-c3cccnc3)cc(-c3ccccc3C)n2)[C@H](OC(C)=O)[C@@H](OC(C)=O)[C@@H]1OC(C)=O [Compound 11]
[A] > 1000 µg/mL

[Q] Now the compound Cc1cccc(-c2cc(-c3ccccn3)nc(N[C@@H]3O[C@H](CO)[C@@H](O)[C@H](O)[C@H]3O)n2)c1 [Compound 4]
[A] > 1000 µg/mL

[Q] Now the compound CC(=O)OC[C@H]1O[C@@H](Nc2nc(-c3ccncc3)cc(-c3ccccc3C)n2)[C@H](OC(C)=O)[C@@H](OC(C)=O)[C@@H]1OC(C)=O [Compound 12]
[A] > 1000 µg/mL

[Q] Now the compound CC(=O)OC[C@H]1O[C@@H](Nc2nc(-c3ccccn3)cc(-c3ccccc3C)n2)[C@H](OC(C)=O)[C@@H](OC(C)=O)[C@@H]1OC(C)=O [Compound 10]
[A] > 1000 µg/mL

* * *

Field: MIC. Provide a value for each of the molecules that follow.
Test system: S. gordonii NCTC 7870
Express it in µg/mL; write the number only.

[Q] Which MIC is reported for this molecule? Cc1ccccc1-c1cc(-c2cccnc2)nc(N[C@@H]2O[C@H](CO)[C@@H](O)[C@H](O)[C@H]2O)n1 [Compound 2]
[A] 500

[Q] Now the molecule Cc1cccc(-c2cc(-c3ccccn3)nc(N[C@@H]3O[C@H](CO)[C@@H](O)[C@H](O)[C@H]3O)n2)c1 [Compound 4]
[A] 250

[Q] Now the molecule Cc1cccc(-c2cc(-c3cccnc3)nc(N[C@@H]3O[C@H](CO)[C@@H](O)[C@H](O)[C@H]3O)n2)c1 [Compound 5]
[A] 125

[Q] Now the molecule Cc1cccc(-c2cc(-c3ccncc3)nc(N[C@@H]3O[C@H](CO)[C@@H](O)[C@H](O)[C@H]3O)n2)c1 [Compound 6]
[A] 250

[Q] Now the molecule Cc1ccccc1-c1cc(-c2ccncc2)nc(N[C@@H]2O[C@H](CO)[C@@H](O)[C@H](O)[C@H]2O)n1 [Compound 3]
[A] 1000

[Q] Now the molecule Cc1ccc(-c2cc(-c3ccncc3)nc(N[C@@H]3O[C@H](CO)[C@@H](O)[C@H](O)[C@H]3O)n2)cc1 [Compound 9]
[A] 1000

[Q] Now the molecule Cc1ccc(-c2cc(-c3cccnc3)nc(N[C@@H]3O[C@H](CO)[C@@H](O)[C@H](O)[C@H]3O)n2)cc1 [Compound 8]
[A] 250

[Q] Now the molecule Cc1ccc(-c2cc(-c3ccccn3)nc(N[C@@H]3O[C@H](CO)[C@@H](O)[C@H](O)[C@H]3O)n2)cc1 [Compound 7]
[A] 500

* * *

Test: LDH cytotoxic activity assay, HeLa
Type: cell-based
Conditions: human, HeLa cells, 100 μg/mL
result type: cytotoxicity at 24 h, 100 μg/mL
Answer as a quantity: numeral, then unit.

[Q] Which cytotoxicity at 24 h, 100 μg/mL is reported for this compound? Cc1ccc(-c2cc(-c3ccncc3)nc(N[C@@H]3O[C@H](CO)[C@@H](O)[C@H](O)[C@H]3O)n2)cc1 [Compound 9]
[A] 55.9%

[Q] Now the compound CC(=O)OC[C@H]1O[C@@H](Nc2nc(-c3ccncc3)cc(-c3ccc(C)cc3)n2)[C@H](OC(C)=O)[C@@H](OC(C)=O)[C@@H]1OC(C)=O [Compound 18]
[A] 54.2%

[Q] Now the compound Cc1cccc(-c2cc(-c3ccncc3)nc(N[C@@H]3O[C@H](CO)[C@@H](O)[C@H](O)[C@H]3O)n2)c1 [Compound 6]
[A] 47.8%

[Q] Now the compound CC(=O)OC[C@H]1O[C@@H](Nc2nc(-c3ccc(C)cc3)cc(-c3ccccn3)n2)[C@H](OC(C)=O)[C@@H](OC(C)=O)[C@@H]1OC(C)=O [Compound 16]
[A] 99.2%

[Q] Now the compound CC(=O)OC[C@H]1O[C@@H](Nc2nc(-c3ccccn3)cc(-c3ccccc3C)n2)[C@H](OC(C)=O)[C@@H](OC(C)=O)[C@@H]1OC(C)=O [Compound 10]
[A] 58.4%

[Q] Now the compound Cc1ccccc1-c1cc(-c2cccnc2)nc(N[C@@H]2O[C@H](CO)[C@@H](O)[C@H](O)[C@H]2O)n1 [Compound 2]
[A] 72.1%

[Q] Now the compound Cc1cccc(-c2cc(-c3ccccn3)nc(N[C@@H]3O[C@H](CO)[C@@H](O)[C@H](O)[C@H]3O)n2)c1 [Compound 4]
[A] 97.2%

[Q] Now the compound CC(=O)OC[C@H]1O[C@@H](Nc2nc(-c3cccc(C)c3)cc(-c3ccccn3)n2)[C@H](OC(C)=O)[C@@H](OC(C)=O)[C@@H]1OC(C)=O [Compound 13]
[A] 50.9%

[Q] Now the compound CC(=O)OC[C@H]1O[C@@H](Nc2nc(-c3ccncc3)cc(-c3ccccc3C)n2)[C@H](OC(C)=O)[C@@H](OC(C)=O)[C@@H]1OC(C)=O [Compound 12]
[A] 49.6%

[Q] Now the compound Cc1ccccc1-c1cc(-c2ccccn2)nc(N[C@@H]2O[C@H](CO)[C@@H](O)[C@H](O)[C@H]2O)n1 [Compound 1]
[A] 88.7%

[Q] Now the compound CC(=O)OC[C@H]1O[C@@H](Nc2nc(-c3ccncc3)cc(-c3cccc(C)c3)n2)[C@H](OC(C)=O)[C@@H](OC(C)=O)[C@@H]1OC(C)=O [Compound 15]
[A] 56%

[Q] Now the compound Cc1ccc(-c2cc(-c3cccnc3)nc(N[C@@H]3O[C@H](CO)[C@@H](O)[C@H](O)[C@H]3O)n2)cc1 [Compound 8]
[A] 49%

[Q] Now the compound CC(=O)OC[C@H]1O[C@@H](Nc2nc(-c3cccnc3)cc(-c3ccccc3C)n2)[C@H](OC(C)=O)[C@@H](OC(C)=O)[C@@H]1OC(C)=O [Compound 11]
[A] 49.8%

[Q] Now the compound Cc1ccc(-c2cc(-c3ccccn3)nc(N[C@@H]3O[C@H](CO)[C@@H](O)[C@H](O)[C@H]3O)n2)cc1 [Compound 7]
[A] 50.7%

[Q] Now the compound Cc1cccc(-c2cc(-c3cccnc3)nc(N[C@@H]3O[C@H](CO)[C@@H](O)[C@H](O)[C@H]3O)n2)c1 [Compound 5]
[A] 54.3%

* * *

Below are GI50 values measured for C6 (Rat brain glioma).

[Q] Which GI50 is reported for this compound? `Cc1ccccc1-c1cc(-c2ccccn2)nc(N[C@@H]2O[C@H](CO)[C@@H](O)[C@H](O)[C@H]2O)n1`
[A] 6.34 mg/L

[Q] Now the compound `CC(=O)OC[C@H]1O[C@@H](Nc2nc(-c3ccncc3)cc(-c3cccc(C)c3)n2)[C@H](OC(C)=O)[C@@H](OC(C)=O)[C@@H]1OC(C)=O`
[A] 2.21 mg/L

[Q] Now the compound `CC(=O)OC[C@H]1O[C@@H](Nc2nc(-c3ccc(C)cc3)cc(-c3ccccn3)n2)[C@H](OC(C)=O)[C@@H](OC(C)=O)[C@@H]1OC(C)=O`
[A] 1.4 mg/L

[Q] Now the compound `Cc1ccc(-c2cc(-c3ccncc3)nc(N[C@@H]3O[C@H](CO)[C@@H](O)[C@H](O)[C@H]3O)n2)cc1`
[A] > 500 mg/L

[Q] Now the compound `CC(=O)OC[C@H]1O[C@@H](Nc2nc(-c3cccnc3)cc(-c3cccc(C)c3)n2)[C@H](OC(C)=O)[C@@H](OC(C)=O)[C@@H]1OC(C)=O`
[A] > 500 mg/L

[Q] Now the compound `Cc1cccc(-c2cc(-c3cccnc3)nc(N[C@@H]3O[C@H](CO)[C@@H](O)[C@H](O)[C@H]3O)n2)c1`
[A] 4.56 mg/L

[Q] Now the compound `CC(=O)OC[C@H]1O[C@@H](Nc2nc(-c3ccccn3)cc(-c3ccccc3C)n2)[C@H](OC(C)=O)[C@@H](OC(C)=O)[C@@H]1OC(C)=O`
[A] 2.21 mg/L

[Q] Now the compound `Cc1ccccc1-c1cc(-c2cccnc2)nc(N[C@@H]2O[C@H](CO)[C@@H](O)[C@H](O)[C@H]2O)n1`
[A] 9.17 mg/L

[Q] Now the compound `Cc1ccccc1-c1cc(-c2ccncc2)nc(N[C@@H]2O[C@H](CO)[C@@H](O)[C@H](O)[C@H]2O)n1`
[A] 4.37 mg/L

[Q] Now the compound `CC(=O)OC[C@H]1O[C@@H](Nc2nc(-c3ccncc3)cc(-c3ccccc3C)n2)[C@H](OC(C)=O)[C@@H](OC(C)=O)[C@@H]1OC(C)=O`
[A] 2.03 mg/L

[Q] Now the compound `Cc1ccc(-c2cc(-c3ccccn3)nc(N[C@@H]3O[C@H](CO)[C@@H](O)[C@H](O)[C@H]3O)n2)cc1`
[A] 8.15 mg/L

[Q] Now the compound `CC(=O)OC[C@H]1O[C@@H](Nc2nc(-c3ccncc3)cc(-c3ccc(C)cc3)n2)[C@H](OC(C)=O)[C@@H](OC(C)=O)[C@@H]1OC(C)=O`
[A] 2.23 mg/L

[Q] Now the compound `CC(=O)OC[C@H]1O[C@@H](Nc2nc(-c3cccnc3)cc(-c3ccccc3C)n2)[C@H](OC(C)=O)[C@@H](OC(C)=O)[C@@H]1OC(C)=O`
[A] 2.1 mg/L

[Q] Now the compound `Cc1cccc(-c2cc(-c3ccncc3)nc(N[C@@H]3O[C@H](CO)[C@@H](O)[C@H](O)[C@H]3O)n2)c1`
[A] > 500 mg/L

[Q] Now the compound `Cc1ccc(-c2cc(-c3cccnc3)nc(N[C@@H]3O[C@H](CO)[C@@H](O)[C@H](O)[C@H]3O)n2)cc1`
[A] 8.71 mg/L

[Q] Now the compound `CC(=O)OC[C@H]1O[C@@H](Nc2nc(-c3cccc(C)c3)cc(-c3ccccn3)n2)[C@H](OC(C)=O)[C@@H](OC(C)=O)[C@@H]1OC(C)=O`
[A] 1.97 mg/L

[Q] Now the compound `Cc1cccc(-c2cc(-c3ccccn3)nc(N[C@@H]3O[C@H](CO)[C@@H](O)[C@H](O)[C@H]3O)n2)c1`
[A] 8.13 mg/L

[Q] Now the compound `CC(=O)OC[C@H]1O[C@@H](Nc2nc(-c3ccc(C)cc3)cc(-c3cccnc3)n2)[C@H](OC(C)=O)[C@@H](OC(C)=O)[C@@H]1OC(C)=O`
[A] > 500 mg/L
